# target.or.test.system: T1, Anti-PSMA Fab (SEQ ID NOs: 19, 20)
# T1 construct: Biotinylated PSMA Fab captured on neutravidin coated plates in the phage ELISA; also called 006 PSMA Fab
# method.description: phage ELISA; biotinylated PSMA Fab on neutravidin plate, bound phage detected with anti-M13-HRP;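 further: crude clonal phage supernatants added, without a wash, to wells pretreated with PSMA antigen in blocking buffer or with blocking buffer only, then briefly incubated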
attribute.measured: Anti-PSMA Fab signal (phage binding ELISA)
Provide a numeric answer; units are not to be included.

See these solved cases before continuing.
YLHSCTPAWMCTGF (tested as crude clonal phage supernatant) [Phage-2064] : 1.77
YDHWCTPMWMCHGM (tested as crude clonal phage supernatant) [Phage-2069] : 1.76
VEKWCTPPWMCSLF (tested as crude clonal phage supernatant) [Phage-2057] : 1.77
EMKWCIPAWMCQSH (tested as crude clonal phage supernatant) [Phage-2061] : 1.77
VSIMCKPMWMCSGT (tested as crude clonal phage supernatant) [Phage-2066] : 1.77
DTMRCVPEWMCTGF (tested as crude clonal phage supernatant) [Phage-2059] : 1.77
AAKMCVPWWMCEVM (tested as crude clonal phage supernatant) [Phage-2065] : 1.77
EGKWCTPIWMCQGF (tested as crude clonal phage supernatant) [Phage-2062] : 1.77
AWKSCIPSWMCEVQ (tested as crude clonal phage supernatant) [Phage-2058] : 1.77
FEMWCTPSWMCDGF (tested as crude clonal phage supernatant) [Phage-2070] : 1.76

Looking up PVKWCIPSWMCSVD (tested as crude clonal phage supernatant) [Phage-2067] , I see its Anti-PSMA Fab signal (phage binding ELISA) listed as 1.76
